Ref: the supplement of paper PMC13380429

Test system: Caco-2
Test: cell viability relative to DMSO; higher = less toxic
Conditions: 72 h; 1 nM
OBSERVED PROPERTY: cell viability (%)
The reply should be a number in %, with the unit left off.

# example entries with known answers
CC(=O)Nc1cccc2c1c(Sc1ccc(Cl)cc1)c(C)n2CC(=O)O [AZD1981] ... 102
NCC1OC(C23CC4CC(CC(C4)C2)C3)Cc2c1ccc(O)c2O (stereo not given) ... 114
O=C(O)c1ccccc1NC(=O)N1CCC(c2ccccc2C(F)(F)F)CC1 [A-1120] ... 100
Cn1cccc1/C=C1\C(=O)NC(=O)c2ccccc21 ... 106

# get_value(readout='cell viability', item= CS(=O)(=O)c1ccc(Cn2c3c(c4cc(F)cc(F)c42)CCCC3CC(=O)O)cc1 (stereo not given) )
97.6

One more compound: Nc1ncnc2c1ncn2[C@@H]1O[C@@H]2COP(=O)(O)O[C@H]2[C@H]1O [cyclic-AMP]
89.8

One more compound: C[n+]1ccc(C(=O)NCc2ccccc2)cc1 [enisamium-iodide]
98.8

One more compound: COc1ccccc1N1CCN(CCCCN2C(=O)c3ccccc3C2=O)CC1 [NAN-190]
99.7

One more compound: COc1cc(C#N)ccc1S(=O)(=O)Nc1ccc2c(c1)cc(C)c(=O)n2C [NI-57]
99.1

One more compound: c1nc(CC2CCNCC2)c[nH]1 [immepip]
113

* * *

Test system: Caco-2
Assay: cell viability relative to DMSO; higher = less toxic
Details: 72 h; 10000 nM
OBSERVED PROPERTY: cell viability (%)
The reply should be a number in %, with the unit left off.

# example entries with known answers
O=C(Oc1cc(S(=O)(=O)c2ccccc2)ccc1[N+](=O)[O-])c1ccc(Cl)cc1 ... 103
NNC(=O)c1ccncc1 [isoniazid] ... 97.6
O=C(CCc1ccncc1)NNC(=O)N1Cc2ccccc2Oc2ccc(Cl)cc21 ... 98.4

# get_value(readout='cell viability', item= COc1cc2c(cc1OC)[C@@H]1Cc3ccc(OC)c(OC)c3CN1CC2 [rotundine] )
91

One more compound: COc1ccc2c(c1)c(CC(=O)O)c(C)n2C(=O)c1ccc(Cl)cc1 [indomethacin]
94.6

* * *

A collection of molecules and their measured cell viability
System: Vero E6
Assay: cell viability relative to DMSO; higher = less toxic
Conditions: 72 h; 1000 nM
The reply should be a number in %, with the unit left off.

# example entries with known answers
CC1OC2(CS1)CN1CCC2CC1 (stereo not given) ... 89.7
O=C(NC1CCNCC1)[C@@H]1CC[C@@H]2CN1C(=O)N2OS(=O)(=O)O ... 102

# get_value(readout='cell viability', item= CCCCCCNC(=O)n1cc(F)c(=O)[nH]c1=O [Carmofur] )
102

One more molecule: CN(C(=O)/C=C/c1ccoc1)[C@@H]1CC[C@@]2(O)[C@H]3Cc4ccc(O)c5c4[C@@]2(CCN3CC2CC2)[C@H]1O5
95.6

One more molecule: Cn1cc(C(=O)c2cccc3ccccc23)cc1C(=O)O
105

* * *

A collection of compounds and their measured cell viability
Test system: Vero E6
Assay: cell viability relative to DMSO; higher = less toxic
Settings: 72 h; 1000 nM
The reply should be a number in %, with the unit left off.

# example entries with known answers
CC(=O)OC[C@H]1O[C@@](COC(C)=O)(O[C@H]2O[C@H](COC(C)=O)[C@@H](OC(C)=O)[C@H](OC(C)=O)[C@H]2OC(C)=O)[C@@H](OC(C)=O)[C@@H]1OC(C)=O [sucrose-octaacetate] ... 94.6
Cc1c(C(=O)Nc2ccc(N3C[C@@H](C)O[C@@H](C)C3)nc2)cccc1-c1ccc(OC(F)(F)F)cc1 [sonidegib] ... 104
O=C(Nc1ccc(Oc2ccc(Cl)cn2)c(Cl)c1)c1ccccn1 ... 96

Fill in the recorded cell viability for this compound, with Vero E6 as test system: C[n+]1cc2c3c(ccc2c2ccc4cc5c(cc4c21)OCO5)OCO3 [sanguinarium-chloride]
75.9

One more compound: Oc1ccc2ccccc2c1 [beta-naphthol]
104

One more compound: C[C@@H]1CC(=O)c2c(ccc3c2C(=O)c2cccc(O)c2C3=O)C1 [ochromycinone]
93.3

One more compound: CCCCCCNC(=O)n1cc(F)c(=O)[nH]c1=O [carmofur]
97.4

One more compound: c1ccc(CCCN2CCN(CCOC(c3ccccc3)c3ccccc3)CC2)cc1
96.5

One more compound: O=C(O)CCc1nc(-c2ccccc2)c(-c2ccccc2)o1 [oxaprozin]
104

* * *

A collection of compounds and their measured relative viability EC50
Tested on: Vero E6
Assay: relative viability EC50 (midpoint between 100% and the lowest measured viability); higher = less toxic
Details: 72 h
The reply should be a number in nM, with the unit left off.

CC(=O)Nc1cccc(-n2c(=O)n(C3CC3)c(=O)c3c(Nc4ccc(I)cc4F)n(C)c(=O)c(C)c32)c1 [trametinib] ... 129

# get_value(readout='relative viability EC50', item= COc1cc2c(cc1O)CC[C@@H]1[C@@H]2CC[C@]2(C)[C@@H](O)CC[C@@H]12 [2-methoxyestradiol] )
2500

* * *

Test system: Calu-3
Test: cell viability relative to DMSO; higher = less toxic
Settings: 72 h; 100 nM
OBSERVED PROPERTY: cell viability (%)
The reply should be a number in %, with the unit left off.

# example entries with known answers
COc1ccc(NS(=O)(=O)c2sc3ccc(Cl)cc3c2C)cc1N1CCNCC1 ... 108
O=C(O)Cc1cccc2c(=O)cc(-c3ccccc3)oc12 ... 97
O=C(CNC(=O)c1ccc(Cl)cc1)NO ... 103
COc1ccc(OC)c(C(O)C(C)N)c1 (centres undefined) ... 103
Cc1nn(-c2ccccc2)c(C)c1/C=N/N1CCN(Cc2ccccc2)CC1 ... 93.1
CC(C)C[C@H](NC(=O)CNC(=O)[C@H](Cc1ccc(O)cc1)NC(=O)[C@H](CO)NC(=O)[C@H](Cc1c[nH]c2ccccc12)NC(=O)[C@H](Cc1cnc[nH]1)NC(=O)[C@@H]1CCC(=O)N1)C(=O)N[C@@H](CCCNC(=N)N)C(=O)N1CCC[C@H]1C(=O)NCC(N)=O ... 92.2

Fill in the recorded cell viability for this compound, with Calu-3 as test system: COc1ccc2cc1Oc1ccc(cc1)C[C@H]1c3cc(c(OC)cc3CCN1C)Oc1c(OC)c(OC)cc3c1[C@H](C2)N(C)CC3
91.3

One more compound: CCCCNc1cc(C(=O)O)cc(S(N)(=O)=O)c1Oc1ccccc1 [bumetanide]
104

One more compound: O=c1cc(N2CCOCC2)oc2c(-c3ccccc3)cccc12
97.4

One more compound: O=S(=O)(NCCCCCCc1ccccc1)c1cccc2c(Cl)cccc12
102

One more compound: CCCCCCCNS(=O)(=O)c1cccc2c(Cl)cccc12
93.8

* * *

System: Caco-2
Experiment: cell viability relative to DMSO; higher = less toxic
Details: 72 h; 10 nM
OBSERVED PROPERTY: cell viability
Field: value (include unit after the number)

# example entries with known answers
CCCN(CC1CC1)c1nc(C)nc(Nc2c(Cl)cc(Cl)cc2Cl)c1Cl ... 97.8%
CCCC[C@]1(CC)CS(=O)(=O)c2cc(CNC(CC(=O)O)CC(=O)O)c(OC)cc2[C@@H](c2ccccc2)N1 ... 97.8%
Cn1cc(C(=O)c2cccc3ccccc23)cc1C(=O)O [napirimus] ... 92%
OCc1ccc(O[C@@H]2O[C@H](CO)[C@@H](O)[C@H](O)[C@H]2O)cc1 [gastrodin] ... 95.9%
O=C1Nc2ccccc2C12OCC1(CO2)COC2(OC1)C(=O)Nc1ccccc12 (centres undefined) [JW-67] ... 92.5%
Cn1ncc(Cl)c1-c1cc(C(=O)N[C@H](CN)Cc2cccc(F)c2)sc1Cl ... 85.6%

# get_value(readout='cell viability', item= BrC1C(Br)C(Br)C(Br)C(Br)C1Br (centres undefined) [1,2,3,4,5,6-hexabromocyclohexane] )
93.6%

One more compound: CC1CCc2cc(F)cc3c(=O)c(C(=O)O)cn1c23 (centres undefined) [flumequine]
75.1%

One more compound: CCC1(CC)C(=O)NC(=O)N(C)C1=O [metharbital]
97.7%

* * *

System: Vero E6
Test: drug sensitivity score (DSS) for viability; higher = more toxic; extreme values may be limits of the assay
Conditions: 72 h
OBSERVED PROPERTY: drug sensitivity score
Could you respond with only the numeric value?

# example entries with known answers
CN1C2C=C(c3sccc3Br)CC1CC2 (stereo not given) [NS-3861] ... 0
C1CCC(C(CC2CCCCN2)C2CCCCC2)CC1 (stereo not given) [perhexiline] ... 2
COc1ccc(/C=C/CCCCOc2ccc(C(=O)c3cccc(C(=O)O)c3)cc2CCC(=O)O)cc1 ... 0

# get_value(readout='drug sensitivity score', item= Oc1ccc2ccccc2c1 [beta-naphthol] )
0

One more compound: CC(C)NNC(=O)c1ccncc1 [iproniazid]
0

One more compound: CN1CCN(C(=O)c2nc3ccc(Cl)cc3[nH]2)CC1
0

One more compound: CC(C)n1nc(-c2ccc3oc(N)nc3c2)c2c(N)ncnc21 [MLN0128]
19.7

One more compound: CC(=O)Nc1cccc2c1c(Sc1ccc(Cl)cc1)c(C)n2CC(=O)O [AZD1981]
0

One more compound: N#Cc1c(N)nc(SCc2csc(-c3ccc(Cl)cc3)n2)c(C#N)c1-c1ccc(OCCO)cc1 [capadenoson]
0

One more compound: O=C(Nc1ccc(Oc2ccc(Cl)cn2)c(Cl)c1)c1ccccn1
0

One more compound: C/C(=N\NC(=N)N)c1cc(NC(=O)CCCCCCCCC(=O)Nc2cc(/C(C)=N/NC(=N)N)cc(/C(C)=N/NC(=N)N)c2)cc(/C(C)=N/NC(=N)N)c1 [semapimod]
1.2

One more compound: O=S(=O)(NCCCCCCc1ccccc1)c1cccc2c(Cl)cccc12 [SC-9]
0

One more compound: C=CC(=O)N1CCN(C(=O)CNc2cc(I)c(Cl)cc2O)CC1 [K-Ras(G12C)-inhibitor-12]
9.6

One more compound: CCN1CCCC1=O [1-ethyl-2-pyrrolidone]
0

One more compound: CCOC(=O)COc1ccc2c(=O)cc(-c3ccccc3)oc2c1 [efloxate]
0

One more compound: Cc1n[nH]c2ccc(-c3cncc(OC[C@@H](N)Cc4ccccc4)c3)cc12
9.7

One more compound: CC#CC(=O)N1CCC[C@H]1c1nc(-c2ccc(C(=O)Nc3ccccn3)cc2)c2c(N)nccn12 [acalabrutinib]
0

One more compound: C[C@]12CC/C(=N\OCCN)C[C@@H]1C(=O)C[C@@H]1[C@@H]2CC[C@]2(C)C(=O)CC[C@@H]12 [istaroxime]
2.2

One more compound: CCCCNc1cc(C(=O)O)cc(S(N)(=O)=O)c1Oc1ccccc1 [bumetanide]
0

One more compound: Cn1ncc(Cl)c1-c1cc(C(=O)N[C@H](CN)Cc2cccc(F)c2)sc1Cl
0
